Assay: basal S. cerevisiae growth modulation, no modifier, primary screen, OD600, strain BY4716, 24 h, basal condition (AID 1173)
Settings: OD600, 24 h, higher = more signal, called active from +8 up or from −8 down
A collection of compounds and their measured z-score
MEASURED_METRIC: z-score

[[record]]
compound = "CCN1C(=O)[C@H]2[C@H]3[C@H](O)[C@H](O)CC(=NOC[C@@H](O)COCc4ccco4)[C@H]3CC[C@H]2C1=O"
experimental_value = -0.54

[[record]]
compound = "CON=C(C)CCN1CCCCc2nc(C)c(C)cc21"
experimental_value = -0.571

[[record]]
compound = "O=C1[C@H]2[C@H]3[C@H](O)[C@H](O)CC(=NO[C@@H]4O[C@H](CO)[C@@H](O)[C@H](O)[C@H]4O)[C@H]3CC[C@H]2C(=O)N1C[C@@H]1CCCO1"
experimental_value = 0.628

[[record]]
compound = "CCOC(=O)[C@H](Cc1ccccc1)NC(=O)CCC1CC(OC(=O)NCc2cccc3ccccc23)CC2(CCCC(COC(=O)NCC3CCCCC3)O2)O1 (stereo partly specified)"
experimental_value = -0.424

[[record]]
compound = "CC(=O)OC[C@H]1O[C@H](CC=NOCC[C@@H]2C=C[C@H](OC(C)=O)[C@@H](COC(C)=O)O2)C=C[C@@H]1OC(C)=O"
experimental_value = 0.0167

[[record]]
compound = "CCO[C@H](c1cc(OC)cc([N+](=O)[O-])c1OC)[C@H](C)[C@@H](OC)[C@H](C)C=CCC(=O)OC"
experimental_value = -0.435

[[record]]
compound = "CCOC(=O)[C@H](CC(C)C)NC(=O)CCC1CC(OC(=O)NCc2ccc3c(c2)OCO3)CC2(CCCC(COC(=O)NCCOC)O2)O1 (stereo partly specified)"
experimental_value = -0.383

[[record]]
compound = "CO[C@H]1COC(=O)[C@H](C)COC(=O)[C@H](C)NC(=O)CC=C[C@H]1C"
experimental_value = -1.32

[[record]]
compound = "COC(=O)[C@H](C)NC(=O)CCC1CC(OC(=O)NCc2cccc3ccccc23)CC2(CCCC(COC(=O)NCCc3ccccc3OC)O2)O1 (stereo partly specified)"
experimental_value = 0.526

[[record]]
compound = "CCN1C(=O)[C@H]2[C@H]3[C@H](O)[C@H](O)CC(=NOCC(C)C)[C@H]3CC[C@H]2C1=O"
experimental_value = -0.36

[[record]]
compound = "COC(=O)[C@H](C)NC(=O)CCC1CC(OC(=O)NCc2cccc3ccccc23)CC2(CCCC(COC(=O)NCCCN3CCCC3=O)O2)O1 (stereo partly specified)"
experimental_value = -0.0554

[[record]]
compound = "C[C@H]1CC[C@@H](C(=O)O)N[C@@H]1c1cccc(N2CCCC2=O)c1"
experimental_value = -0.281

[[record]]
compound = "COC(=O)CC=C[C@@H](C)[C@@H](C=NOC[C@@H](C)[C@H](OCc1ccccc1)C(C)C)OC"
experimental_value = 0.285

[[record]]
compound = "O=C1[C@H]2CCn3c(=O)n(Cc4cc5c(cc4Cl)OCO5)c(=O)n3[C@H]2[C@H](O)[C@@H]2O[C@H]12"
experimental_value = -0.0756

[[record]]
compound = "Cc1ccc(C(C)C)n1C(=O)OC(C)(C)C"
experimental_value = -0.947

[[record]]
compound = "O=C1[C@H]2[C@H]3[C@H](O)[C@H](O)CC(=NO[C@@H]4O[C@H](CO)[C@@H](O)[C@H](O)[C@H]4O)[C@@H]3CC[C@H]2C(=O)N1C1CCCCC1"
experimental_value = 0.431

[[record]]
compound = "CC=CC1=C(CO)[C@H](O)[C@H]2O[C@H]2[C@@H]1O"
experimental_value = -0.299

[[record]]
compound = "COc1ccc(OC[C@@H]2CC3[C@@H](c4ccc(Br)cc4)[C@H](C)CC[C@H]3C(=O)O2)cc1 (stereo partly specified)"
experimental_value = -0.845

[[record]]
compound = "COc1ccc2c(c1)O[C@@H](c1cccc(C(F)(F)F)c1)[C@H](O)C2=O"
experimental_value = -14.3

[[record]]
compound = "CO[C@H]1COC(=O)CC=C[C@@H](C)COC(=O)[C@H]2CCCN2C(=O)CC=C[C@H]1C"
experimental_value = -0.872

[[record]]
compound = "CCN(CC)CC(O)CN1CCCCc2nc(C)c(C)cc21 (stereo unspecified)"
experimental_value = -0.571

